Value source: ChEMBL document CHEMBL3988442

biological target: Tyrosyl-tRNA synthetase, putative (Trypanosoma cruzi (strain CL Brener)) (UniProt Q4DSP6); experiment: Trypanosoma cruzi tyrosyl tRNA synthetase (TcYRS) SOP; type: functional; design: scale not given: direction of the effect not stated beside the values; details: 30 µM

compound	Percent Effect, %
CC(=O)N(Cc1ncc(C)o1)C1CCN(Cc2ccncc2Cl)C1 (stereo not drawn)	30.6
Cc1cc(C(=O)N2CCC(c3nccn3Cc3ccncc3)CC2)no1	15
CC(COc1ccccc1)NCc1nc(-c2cccnc2)no1 (stereo not drawn)	10.3
CS(=O)(=O)N1CCOCC2(CN(Cc3ccsc3)CCO2)C1 (stereo not drawn)	6.17
c1ccc(Cn2ccnc2CN2CCOC(Cn3cccn3)C2)cc1 (stereo not drawn)	17.7
c1cc(CNCc2ccc3c(c2)CCO3)cc(N2CCOCC2)n1	6.17
CC(C)CN1C(=O)c2ccc(C(=O)NCCc3c[nH]cn3)cc2C1=O	5.13
Cc1cc(C(=O)N2CC[C@@H]3CN(c4ncccn4)CCO[C@@H]3C2)c(C)o1	20.5
Cn1cc(C(=O)NC2CCN(C(=O)NCCSC(F)(F)F)CC2)cn1	17.7
Cc1ncc(CNC(=O)Nc2cc(C(F)(F)F)c[nH]c2=O)s1	-2.56
Cc1cc(C(=O)N2C[C@@H]3COC[C@]3(COCc3cccnc3)C2)no1	8.97
CCc1cc(=O)[nH]c2nnc(SCC(=O)OC)n12	17.5
Cn1ccc(CN2CCC(Oc3ccccc3)CC2)cc1=O	24.4
CNC(=O)c1cccc(CNC(=O)C2CC(=O)N(CCN(C)C)C2)c1 (stereo not drawn)	6.17
CN(CC1CCCCO1)C(=O)c1ccnc(OC2CCC2)c1 (stereo not drawn)	0
COCCNC(=O)[C@@H]1CC[C@@H]2[C@@H](CCN2Cc2cnn(C)c2)O1	10
O=C(NCC(F)F)N1CCC(n2ccc(C(F)(F)F)n2)CC1	7.5
Cc1nc(CCNC(=O)N2CCC(Cc3cnn(C)c3)C2)cs1 (stereo not drawn)	5.2

====

Target: Tyrosyl-tRNA synthetase, putative (Trypanosoma cruzi (strain CL Brener))
Sequence (whole entry): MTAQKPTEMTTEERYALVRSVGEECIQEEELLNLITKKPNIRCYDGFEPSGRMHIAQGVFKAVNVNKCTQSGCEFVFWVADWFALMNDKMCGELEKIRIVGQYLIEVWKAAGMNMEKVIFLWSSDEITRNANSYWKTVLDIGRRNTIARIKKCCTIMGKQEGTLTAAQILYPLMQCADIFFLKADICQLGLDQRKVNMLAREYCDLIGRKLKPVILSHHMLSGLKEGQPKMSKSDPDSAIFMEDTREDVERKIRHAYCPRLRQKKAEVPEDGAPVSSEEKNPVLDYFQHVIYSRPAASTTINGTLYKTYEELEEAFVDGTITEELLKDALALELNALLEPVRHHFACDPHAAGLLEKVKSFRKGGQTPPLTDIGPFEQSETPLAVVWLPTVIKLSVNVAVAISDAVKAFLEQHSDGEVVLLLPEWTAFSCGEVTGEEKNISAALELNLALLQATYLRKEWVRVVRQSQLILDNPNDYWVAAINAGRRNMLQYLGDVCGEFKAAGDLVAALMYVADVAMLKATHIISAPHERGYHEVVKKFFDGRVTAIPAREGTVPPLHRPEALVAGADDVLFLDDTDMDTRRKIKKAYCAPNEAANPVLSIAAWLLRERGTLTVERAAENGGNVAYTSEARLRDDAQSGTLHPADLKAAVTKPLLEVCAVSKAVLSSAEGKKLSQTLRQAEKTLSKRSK
Assay: Trypanosoma cruzi tyrosyl tRNA synthetase (TcYRS) SOP
Type: functional
Design: scale not given: direction of the effect not stated beside the values
Details: 30 µM
compounds and their reported Percent Effect
test-readout: Percent Effect (%)

compound	test-readout	unit-label	reported-result
CC1CCN(Cc2cnc(S(=O)(=O)CC3CC3)n2CC2CCCO2)CC1 (stereo not given)	Percent Effect	%	-7.69
Cc1ccc(CC(=O)N2CC[C@@H]3CN(CCN(C)C)CCO[C@@H]3C2)cc1	Percent Effect	%	5.13
COc1cccc(-n2c(C)cc(C(=O)O)c2C)c1	Percent Effect	%	3.8
CN(C)Cc1ccnc(C2CCCN2Cc2ccncc2)n1 (stereo not given)	Percent Effect	%	11.7
COCC(O)CN(C)C(=O)NC1CCN(Cc2ccccn2)CC1 (stereo not given)	Percent Effect	%	24.4
CN(C)C(=O)N1CCC2(CCCN(Cc3cnn(C)c3)C2)C1 (stereo not given)	Percent Effect	%	5.13
N#Cc1ccc(F)c(CN2CCCC2Cn2cnc3ccccc32)c1 (stereo not given)	Percent Effect	%	-6.1
CCN1CCN(C(=O)C(C)N2CCN(Cc3nccn3C)CC2)CC1 (stereo not given)	Percent Effect	%	3.66
Cc1ncc(CNC(=O)CCOc2ccccc2)c(C2CCCN2C)n1 (stereo not given)	Percent Effect	%	1.3
O=C(CCc1ccc(O)cc1)N1CCC(Cc2ccc(CO)cc2)C1 (stereo not given)	Percent Effect	%	12.8
Cn1nnc2c1C(COCc1ccccn1)CN(C(=O)c1cccs1)C2 (stereo not given)	Percent Effect	%	23.5
CN1C(=O)C(C)(C)COc2cc(NS(=O)(=O)c3ccccc3)ccc21	Percent Effect	%	12.5
CC(C)(C)NC(=O)C1CSCN1S(=O)(=O)c1cccc(F)c1 (stereo not given)	Percent Effect	%	10
CC(C)c1nnc2n1CCN(C(=O)c1ccc(CN(C)C)cc1)C2	Percent Effect	%	-2.35
Cc1nccn1CC1CCCN1S(=O)(=O)Cc1ccccc1 (stereo not given)	Percent Effect	%	3.8
CC(C)OCc1ncn2c1CN(Cc1cccs1)CCC2	Percent Effect	%	2.56
Cc1n[nH]c(C2CN(C(=O)c3cc(Cl)c[nH]3)CCO2)n1 (stereo not given)	Percent Effect	%	5.2
Cc1nc(C)n(CC2CCCCN2CC(=O)Nc2cccnc2)n1 (stereo not given)	Percent Effect	%	10.3
CC(O)CN(CC(=O)NC(=O)NCC(F)(F)F)c1ccccc1 (stereo not given)	Percent Effect	%	11.8
CCOC(CC)C(=O)NCc1ccnc(Oc2ccc(F)cc2)c1 (stereo not given)	Percent Effect	%	12.2
